Data credit: patent US12071425B2

EXPERIMENTAL_TARGET: kinase domain of IRE1 alpha (His-tagged kinase dead construct KR, AA G547-L977, D688N) (Homo sapiens (Human), UniProt O75460, D688N)
Sequence (O75460 547-977 D688N): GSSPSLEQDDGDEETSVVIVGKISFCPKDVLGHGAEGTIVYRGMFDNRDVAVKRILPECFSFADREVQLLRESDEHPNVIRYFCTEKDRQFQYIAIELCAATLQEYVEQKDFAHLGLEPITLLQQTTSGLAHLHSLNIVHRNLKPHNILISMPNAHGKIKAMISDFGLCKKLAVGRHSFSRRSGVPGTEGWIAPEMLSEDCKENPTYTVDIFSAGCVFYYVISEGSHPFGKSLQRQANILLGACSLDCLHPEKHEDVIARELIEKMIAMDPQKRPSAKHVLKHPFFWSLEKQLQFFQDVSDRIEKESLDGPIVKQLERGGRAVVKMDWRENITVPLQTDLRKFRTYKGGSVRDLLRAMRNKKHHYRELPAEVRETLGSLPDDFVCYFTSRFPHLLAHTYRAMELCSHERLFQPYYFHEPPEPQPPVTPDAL
ASSAY_INFO: IRE1α TR-FRET competition binding assay
PROTOCOL_CONDITIONS: competition with Kinase Tracer 236, 0.1 μM; one hour at room temperature
PARAMETER_MEASURED: pIC50
Keep in mind that pIC50 stands for -log10 of concentration in molar terms.

Take a look at these entries with their results.
COMPOUND	pIC50
O=S(=O)(Cc1ccc(F)cc1F)Nc1c(F)cc(Oc2ncccc2-c2ccnc(N[C@@H]3CNC[C@@H](F)C3)n2)c(F)c1F [Compound 351]	9.04
O=S(=O)(Nc1ccc(Oc2ncccc2-c2ccnc(N[C@H]3CCCNC3)n2)c(F)c1F)c1ccccc1 [Compound 218]	7.80

Now consider the entry below.
Query block: Consider the compound O=S(=O)(Cc1ccccc1)Nc1c(F)cc(Oc2ncccc2-c2ccnc(NC3CNCC4(C3)CC4(F)F)n2)c(F)c1F (single isomer, unassigned) [Compound 301] . State its measured pIC50.
Result block: 9.44

====

EXPERIMENTAL_TARGET: kinase domain of IRE1 alpha (His-tagged kinase dead construct KR, AA G547-L977, D688N) (Homo sapiens (Human), UniProt O75460, D688N)
ASSAY_INFO: IRE1α TR-FRET competition binding assay
PROTOCOL_CONDITIONS: competition with Kinase Tracer 236, 0.1 μM; one hour at room temperature
Counter-ions that a name gives are not always drawn.
PARAMETER_MEASURED: pIC50
Keep in mind that pIC50 stands for -log10 of concentration in molar terms.

MOLECULE	PARAMETER_MEASURED	REPORTED_MEASUREMENT
COc1cccc(CS(=O)(=O)Nc2c(F)cc(Oc3ncccc3-c3ccnc(N[C@@H]4CNC[C@@H](F)C4)n3)c(F)c2F)c1	pIC50	9.70

Query block: Consider the molecule N#Cc1ccc(CS(=O)(=O)Nc2c(F)cc(Oc3ncccc3-c3ccnc(N[C@@H]4CNC[C@H](CF)C4)n3)c(F)c2F)cc1 . State its measured pIC50.
Result block: 9.19

Query block: Consider the molecule CCC1CCN(c2ccc(Oc3ncccc3-c3ccnc(N[C@H]4CCCNC4)n3)c(F)c2F)C1=O (single isomer, unassigned) [Compound 249] . State its measured pIC50.
Result block: 6.80

Query block: Consider the molecule Cc1c(Oc2ncccc2-c2ccnc(N[C@@H]3CNC[C@H](C)C3)n2)cc(F)c(NS(=O)(=O)Cc2ccccc2)c1F . State its measured pIC50.
Result block: 8.40

Query block: Consider the molecule CCCS(=O)(=O)Nc1cc(C)c(Oc2ncccc2-c2ccnc(N[C@H]3CCCNC3)n2)cc1C [Compound 124] . State its measured pIC50.
Result block: 6.68

Query block: Consider the molecule O=S(=O)(CC1CCCCC1)Nc1ccc(Oc2ncccc2-c2ccnc(N[C@H]3CCCNC3)n2)c(F)c1F [Compound 145, hydrochloride] . State its measured pIC50.
Result block: 8.11

====

EXPERIMENTAL_TARGET: kinase domain of IRE1 alpha (His-tagged kinase dead construct KR, AA G547-L977, D688N) (Homo sapiens (Human), UniProt O75460, D688N)
ASSAY_INFO: IRE1α TR-FRET competition binding assay
PROTOCOL_CONDITIONS: competition with Kinase Tracer 236, 0.1 μM; one hour at room temperature
Structures can show the parent of a compound that is named as a salt.
Measured pIC50 by item
Keep in mind that pIC50 stands for -log10 of concentration in molar terms.

COMPOUND	REPORTED_MEASUREMENT
Cc1cc(NS(=O)(=O)Cc2c(F)cccc2F)c(F)c(F)c1Oc1ncccc1-c1ccnc(N[C@@H]2CNC[C@@H](F)C2)n1	9.39
CC(F)C1CNCC(Nc2nccc(-c3cccnc3Oc3cc(F)c(NS(=O)(=O)Cc4ccccc4)c(F)c3F)n2)C1 (single isomer, unassigned) [Compound 344, hydrochloride]	7.72
CC(F)(F)CCS(=O)(=O)Nc1c(F)cc(Oc2ncccc2-c2ccnc(N[C@@H]3CNC[C@@H](F)C3)n2)c(F)c1F	8.72
O=S(=O)(Cc1ccccc1)Nc1c(F)cc(Oc2ncccc2-c2ccnc(N[C@H]3CNC[C@H](F)C3)n2)c(F)c1F	7.48
COc1cccc(S(=O)(=O)Nc2ccc(Oc3ncccc3-c3ccnc(N[C@H]4CCCNC4)n3)c(F)c2F)c1	7.60

Now consider the entry below.
Query block: Consider the compound COc1ccccc1S(=O)(=O)Nc1ccc(Oc2ncccc2-c2ccnc(N[C@H]3CCCNC3)n2)c(F)c1F . State its measured pIC50.
Result block: 7.40
